System: MDA-MB-468 breast
EXPERIMENTAL DETAILS: NCI-60 one-dose screen, 48 h (100 = growth as untreated, 0 = no growth, -100 = all killed)
COND: 10 µM unless noted
About 83,000 compounds went through this panel and 20% of them were active in at least one assay; those are over-represented in the sample as a whole.
READOUT NAME: growth (%)
Enter your answer as a number in %; do not include the unit.

Problem: Fill in the blank: the reported growth of COc1ccc(N2CCC(=O)NC2=S)cc1 is ____.
Result: 100

Problem: Fill in the blank: the reported growth of CN(C)CCNC(=O)c1ccc(-c2nc3ccc4[nH]ncc4c3c3c2C2CCC3C2)cc1 (stereo not given) is ____.
Result: 16.2

Problem: Fill in the blank: the reported growth of CCCCCCCCCCCCCCCCCCOc1ccccc1CC(=O)OCC[N+]1(C)CCOCC1 is ____.
Result: 51.9

Problem: Fill in the blank: the reported growth of CN(C)CCCn1c(=O)c2cc([N+](=O)[O-])ccc2c2cnc3[nH]ccc3c21 is ____.
Result: 81.3

Problem: Fill in the blank: the reported growth of COc1cc(/C=C/C(=O)c2ccc(C(F)(F)F)cc2)ccc1Oc1nc(NCCO)nc(N2CCOCC2)n1 is ____.
Result: 85.6

----------
System: U251 CNS
EXPERIMENTAL DETAILS: NCI-60 one-dose screen, 48 h (100 = growth as untreated, 0 = no growth, -100 = all killed)
COND: 10 µM
Compounds without any hit were thinned out: in the full panel of roughly 83,000, 20% have a hit.
param class (str): category from growth; see ranges range 1 (below 50%), range 2 (50% to below 80%), range 3 (80% or more)

Problem: Tag the class for O=C(CN1CCN(c2ncnc3c2cnn3-c2ccccc2)CC1)Nc1ccc(Cl)cc1
Result: range 2

Problem: Tag the class for COc1cccc(O)c1/C=C1\SCc2cc3c(OC)cccc3[o+]c21
Result: range 3

Problem: Tag the class for COC(=O)CNC(=O)COc1c(OC)c(OC)cc2oc(-c3cccc(C(=O)Nc4ccc(Cl)cc4)c3)cc(=O)c12
Result: range 1

Problem: Tag the class for O=[N+]([O-])c1cccc(-c2nnc3c(/C=C/c4ccccc4O)nc4ccccc4n23)c1
Result: range 2

Problem: Tag the class for O=C1S/C(=C\c2ccc([N+](=O)[O-])cc2)C(=O)N1CCN1CCCCC1
Result: range 3

Problem: Tag the class for O=C(Nc1ccc(Oc2ncnc3scc(Nc4n[nH]c(=S)s4)c23)cc1)C1(C(=O)Nc2cccc(C(F)(F)F)c2)CC1
Result: range 3

Problem: Tag the class for Cn1cc(-c2nnc(N)nc2-c2c[nH]c3ccccc23)c2cc(Br)cnc21
Result: range 1

Problem: Tag the class for COc1ccccc1-n1cc(C#N)c(N)c1C(=O)c1ccc(Cl)cc1Cl
Result: range 1

Problem: Tag the class for Fc1ccc(-c2csc(Nc3cccc(Nc4nc(-c5ccc(F)cc5)cs4)c3)n2)cc1
Result: range 2

Problem: Tag the class for Cc1ccc2c(c1)C(=O)/C(=C/c1c[nH]c3ccccc13)S2
Result: range 1

----------
Test system: MDA-MB-468 breast
EXPERIMENTAL DETAILS: NCI-60 one-dose screen, 48 h
COND: 10 µM unless noted
Experimental: Growth inhibition of the MDA-MB-468 human Breast tumor cell line is measured as a screen for anti-cancer activity. Cells are grown in 96 well plates and exposed to the test compound for 48 hours. Compounds are tested at a single concentration, which is 10^-5 M for most compounds. The reported endpoint is percent growth (GI% or GIPRCNT), where numbers from 0 - 100% represent growth inhibition, and numbers from -100% - 0 represent cell death. […]
The panel holds about 83,000 compounds, 20% with a hit somewhere; the sample as a whole holds those more often. Active and inactive are the calls of the source. How the source made its calls: active means growth percent below 10; inactive means the rest.
Tick one outcome: active, inactive

Problem: // param item: Cc1cc(C)c2c(n1)sc1c(Nc3ccc(O)cc3)ncnc12 ; yields the recorded call
Result: inactive

Problem: // param item: Nc1c(C(=O)Nc2ccccc2F)sc2nc3c(cc12)C(=O)CCC3 ; yields the recorded call
Result: active

Problem: // param item: COc1ccc(/C=C/C(=O)c2cc3c(N)c(C(=O)Nc4ccccc4C)sc3nc2C)cc1 ; yields the recorded call
Result: inactive

Problem: // param item: Cc1ccc2c(c1)C(C)Cc1c(Cl)ncnc1N2C (stereo not given) ; yields the recorded call
Result: active

Problem: // param item: Cc1ccc(C(=O)Nc2ccc(Cl)cc2C(=O)NCc2ccccc2)cc1 ; yields the recorded call
Result: inactive

Problem: // param item: COc1ccc(C(O)c2cc3c(N)c(C(=O)Nc4cccc(Br)c4)sc3nc2C)cc1 (stereo not given) ; yields the recorded call
Result: inactive

Problem: // param item: CC(C)(C)CC(C)(C)Nc1c(-c2c(O)c3ccccc3oc2=O)nc2c(Cl)cc(C(F)(F)F)cn12 ; yields the recorded call
Result: inactive

Problem: // param item: COc1ccc(C(C)=O)cc1S(N)(=O)=O ; yields the recorded call
Result: inactive

Problem: // param item: C=C1CCC2C3(C)COC(c4ccc(N(C)C)cc4)OC3CCC2(C)C1C/C=C1/C(=O)OCC1O (stereo not given) ; yields the recorded call
Result: inactive

Problem: // param item: C=C1C(=O)O[C@H]2[C@H]1CC/C(COC(=O)NCCc1ccc(Br)cc1)=C\CC[C@@]1(C)O[C@@H]21 ; yields the recorded call
Result: active
